- TESTED SYSTEM: human α7 nAChR (Homo sapiens, UniProt P36544)
- Construct: full-length subunit cDNA in pSP64GL, cRNA injected in Xenopus laevis oocytes, homopentamer
- Sequence (P36544 23-502): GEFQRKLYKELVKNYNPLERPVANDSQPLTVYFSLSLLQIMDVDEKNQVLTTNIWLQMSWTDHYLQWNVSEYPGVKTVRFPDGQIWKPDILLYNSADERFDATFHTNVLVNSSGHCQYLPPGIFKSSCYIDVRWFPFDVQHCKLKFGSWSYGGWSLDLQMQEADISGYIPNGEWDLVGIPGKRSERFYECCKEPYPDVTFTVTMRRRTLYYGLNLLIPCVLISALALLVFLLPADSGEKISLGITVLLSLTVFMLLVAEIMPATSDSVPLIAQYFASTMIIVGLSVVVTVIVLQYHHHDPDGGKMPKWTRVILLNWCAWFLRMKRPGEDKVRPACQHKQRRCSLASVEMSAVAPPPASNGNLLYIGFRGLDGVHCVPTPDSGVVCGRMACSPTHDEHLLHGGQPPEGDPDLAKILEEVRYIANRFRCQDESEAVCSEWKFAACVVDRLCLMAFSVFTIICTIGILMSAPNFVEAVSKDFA
- PROCEDURE TEXT: two-electrode voltage clamp, Xenopus oocytes
MEASURED PROPERTY: pIC50
pIC50 here is simply -log10 of the concentration when that concentration is written in mol/L.

Readout pIC50 for Cc1cc(C)c(C2Nc3ccc(S(N)(=O)=O)cc3C3C=CCC32)c(C)c1 (stereo not drawn) , test system human α7 nAChR (Homo sapiens, UniProt P36544), was 5.28

Readout pIC50 for Cc1ccc(C)c(C2Nc3ccc(S(N)(=O)=O)cc3C3C=CCC32)c1C (stereo not drawn) , test system human α7 nAChR (Homo sapiens, UniProt P36544), was 4.64

Readout pIC50 for Cc1cccc(C)c1C1Nc2ccc(S(N)(=O)=O)cc2C2C=CCC21 (stereo not drawn) , test system human α7 nAChR (Homo sapiens, UniProt P36544), was 4.37
